# Tested on: SARS-CoV-2-NLuc
# Measurement notes: microbe, parasite or virus in culture
# Type: cell-based, SARS Coronavirus 2
# Run parameters: Severe acute respiratory syndrome coronavirus, 48 h; read-out: MPro EC50
pEC50: −log10 of the molar value.
Measured endpoint: pEC50

>  <Compound>
Cc1c(F)cncc1-n1c(=O)c2sc(-c3ccccc3C#N)cc2n(CCC#N)c1=O [Example 848]

>  <Measured endpoint>
pEC50

>  <Result number>
6.86

$$$$
>  <Compound>
Cc1ccc(C#N)cc1-c1cc2c(s1)c(=O)n(-c1cncc3ccccc13)c(=O)n2CCC#N [Example 810]

>  <Measured endpoint>
pEC50

>  <Result number>
7.06

$$$$
>  <Compound>
Cc1ccc2cncc(-n3c(=O)[nH]c4cc(-c5ccccc5Cl)sc4c3=O)c2c1 [Example 106]

>  <Measured endpoint>
pEC50

>  <Result number>
7.14

$$$$
>  <Compound>
COc1cc(-c2cccc(Cl)c2-c2ccc3c(=O)n(-c4cncc5ccccc45)c(=O)[nH]c3c2)cn2ncnc12 [Example 143]

>  <Measured endpoint>
pEC50

>  <Result number>
7.10

$$$$
>  <Compound>
Cn1cnc2cncc(-n3c(=O)c4sc(-c5ccc(F)cc5Cl)cc4n(CCC#N)c3=O)c21 [Example 851]

>  <Measured endpoint>
pEC50

>  <Result number>
7.12

$$$$

* * *

# Target entity: recombinant SARS-CoV-2 Main protease (Mpro) (Severe acute respiratory syndrome coronavirus 2 (2019-nCoV) (SARS-CoV-2))
# Measurement notes: Cov Mpro Biochemical IC50 Assay
# Run parameters: recombinant SARS-CoV-2 Mpro 7.5 nM, fluorogenic peptide substrate 40 μM; read-out: MPro IC50
hey, just use 1 if measured IC50 is less than 0.009 µM, otherwise -1

>  <Compound>
COc1ccc(Cl)c(-c2cc3[nH]c(=O)n(-c4cncc5cccnc45)c(=O)c3s2)c1 (single isomer, unassigned) [Example 468]

>  <Category>
1

$$$$
>  <Compound>
COc1cc(-c2cc3c(s2)c(=O)n(-c2cncc4cccnc24)c(=O)n3CCC#N)c(Cl)cc1F (single isomer, unassigned) [Example 1036]

>  <Category>
1

$$$$
>  <Compound>
COc1cc(-c2cc3c(s2)c(=O)n(-c2cncc(N(C)C)c2)c(=O)n3CCC#N)c(Cl)cc1F

>  <Category>
-1

$$$$
>  <Compound>
Cc1nn(C)cc1-c1cccc(Cl)c1-c1cc2[nH]c(=O)n(-c3cncc(C4CC4)c3)c(=O)c2s1

>  <Category>
1

$$$$
>  <Compound>
Cn1nnc2cncc(-n3c(=O)c4sc(-c5ccccc5C#N)cc4n(CCC#N)c3=O)c21

>  <Category>
-1

$$$$
>  <Compound>
Cn1cc(-c2cccc(Cl)c2-c2cc3[nH]c(=O)n(-c4cncc5ccccc45)c(=O)c3s2)c(C(F)(F)F)n1 (single isomer, unassigned) [Example 448]

>  <Category>
-1

$$$$
>  <Compound>
COc1cc(-c2cc3[nH]c(=O)n(-c4cncc5c(C#N)nn(C)c45)c(=O)c3s2)c(Cl)cc1F

>  <Category>
-1

$$$$
>  <Compound>
COc1cc(-c2cc3[nH]c(=O)n(-c4cncc5sc(C#N)c(C)c45)c(=O)c3s2)c(Cl)cc1F

>  <Category>
1

$$$$
>  <Compound>
COc1cc(-c2cc3[nH]c(=O)n(-c4cncc5nn(CC(F)(F)F)c(C)c45)c(=O)c3s2)c(Cl)cc1F

>  <Category>
-1

$$$$
>  <Compound>
COc1cc(-c2ccc3c(=O)n(-c4cncc5ccccc45)c(=O)n(CCC#N)c3c2)c(Cl)cc1F

>  <Category>
-1

$$$$
